Recorded inhibition for the following compounds
system: Heat shock protein HSP 90 (rabbit reticulocyte lysate; luciferase refolding); experiment: HSP90 inhibitors, primary screen, cell lysate, luminescence (AID 1789); conditions: 3 h, at 5.6 µM, hits give high values;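 further: 0% = DMSO wells and 100% = 60 µM geldanamycin wells; inhibitors lower the luminescence because luciferase stays unfolded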
Screen size: about 290,000 compounds; about 2,700 (0.93%) were called active. For the sample, actives were picked, then their nearest neighbours and some compounds at random.
measuredQuantity: inhibition (%)

>>> measurement("CCc1ccc(Nc2ncc3c(n2)CC(c2ccco2)CC3=O)cc1 (configuration not stated)")
22
>>> measurement("CC(=O)c1ccc(N2CCN(C(=O)CCc3ccccc3)CC2)cc1")
-1.79
>>> measurement("O=C(COC(=O)/C=C/c1cccs1)NC1CCCCC1")
1.87
>>> measurement("Cc1cc(=O)oc2c1ccc1ccccc12")
-1.23
>>> measurement("CC(C)CNC(=O)CC(NCC(C)C)C(=O)O (configuration not stated)")
21.9
>>> measurement("COc1cc(C2CC(=O)c3cnc(NC(C)=O)nc3C2)cc(OC)c1OC (configuration not stated)")
-1.32
>>> measurement("CCOC(=O)N1CCN(C(=O)COCc2cc(-c3ccc4c(c3)OCO4)on2)CC1")
-2.54
>>> measurement("CCOc1ncccc1C(=O)OCc1cn2cc(Cl)ccc2n1")
-0.94
>>> measurement("Clc1ccc2nc(CSc3ccccc3)cn2c1")
25.5
>>> measurement("O=C(CCCc1ccccc1)NCc1ccccc1")
-2.48
>>> measurement("COc1ccc(NC(=O)C/C(C)=N/NC(=O)c2cnccn2)cc1Cl")
-1.56
>>> measurement("COc1ccc(NC(=O)N2CCCC2C(=O)NCc2ccccc2Cl)cc1 (configuration not stated)")
-3.61

====

system: Heat shock protein HSP 90 (rabbit reticulocyte lysate; luciferase refolding); assay: HSP90 inhibitors, primary screen, cell lysate, luminescence (AID 1789); conditions: 3 h, at 5.6 µM, hits give high values;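 further: 0% = DMSO wells and 100% = 60 µM geldanamycin wells; inhibitors lower the luminescence because luciferase stays unfolded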
Hit rate of the full screen: of about 290,000 compounds, about 2,700 (0.93%) were called active. This is one part of a sample in which actives are shown more often than they occur.
Recorded inhibition for the following molecules
measuredQuantity: inhibition (%)

>>> measurement("CCc1ccc(NC(=O)CCNS(=O)(=O)c2cccs2)cc1")
-2.78
>>> measurement("CCN(CCCNC(=O)c1ccc2c(c1)NC(=O)CN2C)c1cccc(C)c1")
19.6
>>> measurement("O=S(=O)(Nc1ccccc1Cl)c1cccc2nsnc12")
-0.91
>>> measurement("Cc1ccc(/C=N/NC(=S)NC2CCCCC2)o1")
-0.34
>>> measurement("CCS(=O)(=O)c1cc([N+](=O)[O-])c(Sc2ccccc2N)s1")
20.8
>>> measurement("CC(C)c1nnc(NC(=O)C2CC(=O)N(CCc3ccc(F)cc3)C2)s1 (configuration not stated)")
-2.78
>>> measurement("COc1ccc(-n2c(C)cc(C(=O)CN3C(=O)NC4(CCc5ccccc54)C3=O)c2C)cc1 (configuration not stated)")
2.66
>>> measurement("COC(=O)C1[C@H]2SC(C)(C)C(C(=O)OC)N2C(=O)N1Cc1nc2ccccc2s1 (some centres not stated)")
26.1
>>> measurement("O=C(Nc1nnc(C2CC2)s1)c1ccccn1")
16
>>> measurement("Cc1ccc(Sc2cc(C(=O)c3ccccc3C(=O)O)ccc2[N+](=O)[O-])cc1")
-2.36
>>> measurement("CCN(CCCNC(=O)CCn1c(=O)[nH]c2ccsc2c1=O)c1ccccc1")
0.39
>>> measurement("N#C[C@]1(S(=O)(=O)c2ccccc2)C[C@@H]2ON=C(c3cccc(Br)c3)[C@@H]2C1")
0.82
>>> measurement("Cc1cccc(C(=O)NCCCN(C)CCCNC(=O)c2cccc(C)c2)c1")
-1.31
>>> measurement("Cc1cc(C(=O)CCl)c(C)n1CC1COc2ccccc2O1 (configuration not stated)")
4.06
>>> measurement("Cc1cnc(NC(=O)c2ccccn2)s1")
21
>>> measurement("CCC1(CC)NC(=O)N(Cc2nc3ccccc3s2)C1=O")
1.16
>>> measurement("O=C(CN1CCN(C(=O)C2CCCO2)CC1)Nc1c(Cl)cccc1Cl (configuration not stated)")
-1.9
>>> measurement("Cc1ccsc1C(=O)OCC(=O)c1cc(C)n(CC2CCCO2)c1C (configuration not stated)")
82.5
>>> measurement("COCCN(C(=O)CCC(=O)Nc1nccs1)C(C(=O)NCCC(C)C)c1ccc(F)cc1 (configuration not stated)")
2.45
>>> measurement("CCn1ccnc1CN(C)C(=O)c1ccc2nc(Cc3ccc(OC)cc3)oc2c1")
-0.73
>>> measurement("CC1(C)SC2C(NC(=O)COc3ccccc3)C(=O)N2C1C(=O)O (configuration not stated)")
-3.05
>>> measurement("CCC(C)(C)n1nnnc1C(c1ccc(OC)c(OC)c1)N1CCN(C(=O)c2ccco2)CC1 (configuration not stated)")
-0.49
